Test: Human PBMC viability assay
Format: cell-based
Settings: CD11c+ dendritic cells in human PBMC cultures, 1.25 pM azacitidine alone, FIG. 2, read-out: reduction of the viability of CD11c^+ dendritic cells

| given-smiles | cytotoxicity at 1.25 pM |
| --- | --- |
| Nc1ncn([C@@H]2O[C@H](CO)[C@@H](O)[C@H]2O)c(=O)n1 | ~40% |

The origin of these recorded values is patent US12343377B2.
